Biological target: T1, HCV bt-134-154 (Peptide 1, HCVc 134-154) (Hepatitis C virus (numbering per HCV-1), biotin (carboxy-terminal per; N-terminal per))
T1 peptide: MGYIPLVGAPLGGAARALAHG
Assay: EIA, captured mAb + biotin peptide
Here the recorded Reactivity (OD 492 nm) is given for each entry.
Output spec: scalar in OD units, unitless text.

Some entries whose results are on file:
{"columns": ["Binder", "Property measured", "Result unit", "Reported value"],
 "data": [
  ["HCV 208B-547 (antibody, V domains shown) VH: QVQLQQSGAELAKPGASVKMSCKASGYTFTSNKMHWAKQRPGQGLEWIGYIDPSSGYTEYNQKIKDKATLTADKSSSTAYMQLSSLTSEDSAVYYCTNFAYWGQGTLVTVSA VL: EVVLTQSPAITAASLGQKVTITCRASSSVSYMHWYRQKSGTSPQPWIYEISTLASGVPTRFRASGSGTSYSLTISSMEAEDAAIYYCQQWNYPLTFGAGTKLELKR", "Reactivity (OD 492 nm)", "OD units", 0.12],
  ["HCV 208B-353 (antibody, V domains shown) VH: EVQLVESGGDLVKPGGSLKLSCAASGFTFNHYGMSWVRQPPDKRLEWVATISSGGGYTYYPDSVKGRFTISRDNAKDTLSLQMSSLRSGDTAVYYCASLYGSLFAYWGQGTLVTVSA VL: DIVMTQSQKFMSTTVGDRVRVTCKASQNVGTAVAWYQQKPGQSPKLLIYSASNRYTGVPDRFTGSGSGTDFTLTITNMQSEDLADYFCQQYSTYPLTFGSGAKLEIKR", "Reactivity (OD 492 nm)", "OD units", 0.07]
]}

# get_value(readout='Reactivity (OD 492 nm)', item= HCV 208A-557 (antibody, V domains shown) VH: QGQMQQSGAELVKPGASVKLSCKTSGFTFSSSYISWLKQKPGQSLEWIAWIYAGTGNTNYNQKFTDKAQLTVDTSSSTAYMQLSSLTTEDSAIYYCAISGTGFTYWGQGTLVTVSA VL: DIALTQSPASLAVSLGQRATISCRASQSVSTSRYSYMHWYQQKPGQPPELLIKYASNLESGVPARFSGSGSGTDFTLNIHPVGEEDTATYYCQHSWDFPFTFGSGTKLEIKR ) 0.05

Attribution: patent US20170052184A1
